# Tested on: Fibroblast
# protocol: Multiplex assay against human fibroblast
# Assay type: toxicity, cell-based
# conditionSet: 48 h, 1 µM, compound concentration 1 uM, replicate 2
Hi there, I'd appreciate the recorded Population Pyknosed Nuclei (%) for every entry that follows.
Enter your answer as a number in %; do not include the unit.

Which Population Pyknosed Nuclei (%) is listed for CC(/C=C1\SC(=S)N(CCCC(=O)Nc2ccc(C(=O)O)c(O)c2)C1=O)=C\c1ccccc1 ?
2

If you can, please state the reported Population Pyknosed Nuclei (%) value of CN1C(=O)[C@@H](NC(=O)c2cc3ccccc3[nH]2)N=C(c2ccccc2)c2ccccc21 [DEVAZEPIDE] .
0

Consider the compound Oc1cccc(-c2nc(N3CCOCC3)c3oc4ncccc4c3n2)c1 and give its measured Population Pyknosed Nuclei (%).
4

If you can, please state the reported Population Pyknosed Nuclei (%) value of CCCCN(CC)c1nc(C)nc2c1c(C)cn2-c1c(C)cc(C)cc1C.Cl .
2

Name the recorded Population Pyknosed Nuclei (%) for Cc1ccc(S(=O)(=O)NC2c3ccccc3Oc3ccccc32)cc1 .
6

###

Exercise: state measured Population Pyknosed Nuclei (%) for each of the compounds provided.
# Test system: Fibroblast
# protocol: Multiplex assay against human fibroblast
# Type: toxicity, cell-based
# conditionSet: 48 h, 1 µM, compound concentration 1 uM, replicate 1
Your answer should be a plain number; it is taken to be in %.

// Population Pyknosed Nuclei (%) lookup, key: CC(/C=C1\SC(=S)N(CCCC(=O)Nc2ccc(C(=O)O)c(O)c2)C1=O)=C\c1ccccc1
12

Fill blank: measured Population Pyknosed Nuclei (%) of the compound Cc1ccc(S(=O)(=O)NC2c3ccccc3Oc3ccccc32)cc1 is ____.
15

Look at this compound and give its reported Population Pyknosed Nuclei (%). CC(Cc1ccc(O)c(O)c1)C(C)Cc1ccc(O)c(O)c1 (centres undefined) [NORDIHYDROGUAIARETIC ACID]
3

// lookup Population Pyknosed Nuclei (%) for CCCCCNC(=N)N/N=C/c1c[nH]c2ccc(OC)cc12.O=C(O)/C=C\C(=O)O [TEGASEROD MALEATE]
4

I am curious: what Population Pyknosed Nuclei (%) value has been reported for CC(C)[C@H](CO)Nc1nc(Nc2cccc(Cl)c2)c2ncn(C(C)C)c2n1 ?
9

Request the reported Population Pyknosed Nuclei (%) associated with CCCc1cc(C)[nH]c(=O)c1CNC(=O)c1cc(-c2ccc(N3CCN(C(C)C)CC3)nc2)cc2c1cnn2C(C)C
15

Reported Population Pyknosed Nuclei (%), compound C[C@@H](Oc1cc(-n2cnc3ccc(CN4CCN(C)CC4)cc32)sc1C(N)=O)c1ccccc1C(F)(F)F : ____
13

Given the compound C=CC(=O)Nc1cc(-n2c(=O)ccc3cnc4ccc(-c5ccc(NS(C)(=O)=O)cc5)cc4c32)ccc1C , what is its reported Population Pyknosed Nuclei (%)?
24

Form field: reported Population Pyknosed Nuclei (%) of CC(C)C[C@H](NC(=O)[C@H](Cc1ccccc1)NC(=O)CNC(=O)CNC(=O)[C@@H](N)Cc1ccc(O)cc1)C(=O)O
22

###

# Test system: Fibroblast
# protocol: Multiplex assay against human fibroblast
# Type: toxicity, cell-based
# conditionSet: 48 h, 10 µM, compound concentration 10 uM, replicate 1
measure: Population Normal (%)
Write the number in % without appending the unit.

For N#Cc1cccc(C(=O)Nc2cc(-c3ccccc3)nn2-c2ccccc2)c1 , what is its reported Population Normal (%)?
87

Consider the molecule shown here: CN(c1cc(C(F)(F)F)nc(OCCC(=O)O)n1)c1cccc2c1CCC2 What is its recorded Population Normal (%)?
85

What value of Population Normal (%) has been recorded for this entry: c1ccc(-c2oc3ncnc(NC[C@@H]4CCCO4)c3c2-c2ccccc2)cc1
85

I would be grateful if you could share the reported Population Normal (%) for CC(/C=C1\SC(=S)N(CCCC(=O)Nc2ccc(C(=O)O)c(O)c2)C1=O)=C\c1ccccc1 .
44

Query (molecule): CC(Cc1ccc(O)c(O)c1)C(C)Cc1ccc(O)c(O)c1 (centres undefined) [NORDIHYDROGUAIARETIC ACID] ; field requested: Population Normal (%)
84

Please give the measured Population Normal (%) for this molecule: Cc1ccc(S(=O)(=O)NC2c3ccccc3Oc3ccccc32)cc1
92

If you can, please state the reported Population Normal (%) value of CCCCN(CC)c1nc(C)nc2c1c(C)cn2-c1c(C)cc(C)cc1C.Cl .
79

Can you look up the measured Population Normal (%) of Cc1c(Nc2ccc(S(=O)(=O)N3CCN(C)CC3)cc2F)nc2ccc(-c3cnn(C4CC4)c3)cn2c1=O for me?
56

Please give the measured Population Normal (%) for this molecule: C=CC(=O)Nc1cc(-n2c(=O)ccc3cnc4ccc(-c5ccc(NS(C)(=O)=O)cc5)cc4c32)ccc1C
81

###

# Test system: HEK-293T
# protocol: Multiplex assay against HEK293T
# Type: toxicity, cell-based
# conditionSet: human, 48 h, 1 µM, compound concentration 1 uM, replicate 2
measure: Population Pyknosed Nuclei (%)
Only the number, expressed in %, is required.

# input compound: N#CCNC(=O)c1ccc(-c2ccnc(Nc3ccc(N4CCOCC4)cc3)n2)cc1 [MOMELOTINIB] ; wanted: its Population Pyknosed Nuclei (%)
9

# lookup: Population Pyknosed Nuclei (%) of CN(c1cc(C(F)(F)F)nc(OCCC(=O)O)n1)c1cccc2c1CCC2
8

Can you look up the measured Population Pyknosed Nuclei (%) of Cc1ccc(S(=O)(=O)NC2c3ccccc3Oc3ccccc32)cc1 for me?
12

Suppose we examine the compound CCCCN(CC)c1nc(C)nc2c1c(C)cn2-c1c(C)cc(C)cc1C.Cl ; what Population Pyknosed Nuclei (%) value has been reported?
10

Request the reported Population Pyknosed Nuclei (%) associated with C[C@@H](Oc1cc(-n2cnc3ccc(CN4CCN(C)CC4)cc32)sc1C(N)=O)c1ccccc1C(F)(F)F [GSK-461364]
28

Reported Population Pyknosed Nuclei (%) for Cl.NC[C@@H]1O[C@H](C23CC4CC(CC(C4)C2)C3)Cc2c1ccc(O)c2O : what is it?
11

Which Population Pyknosed Nuclei (%) value belongs to Cc1c(P(=S)(c2ccccc2)c2ccccc2)n2ccccc2[n+]1C/C=C/c1ccccc1.[Br-] ?
34

Need Population Pyknosed Nuclei (%), item CC(C)[C@H](CO)Nc1nc(Nc2cccc(Cl)c2)c2ncn(C(C)C)c2n1 [PURVALANOLA]
15

Look at this compound and give its reported Population Pyknosed Nuclei (%). N#Cc1cccc(C(=O)Nc2cc(-c3ccccc3)nn2-c2ccccc2)c1
16

###

# Tested on: U2OS
# protocol: Multiplex assay against U2OS
# Format: toxicity, cell-based
# conditionSet: human, 12 h, 1 µM, compound concentration 1 uM, replicate 2
I'd be grateful if you could share measured Population Mitochondria Different-Phenotype (%) for these entries.
The response must be a number in % with no trailing unit.

Need Population Mitochondria Different-Phenotype (%), item Cc1ccc(S(=O)(=O)NC2c3ccccc3Oc3ccccc32)cc1
16

Tell me the measured Population Mitochondria Different-Phenotype (%) of Cc1c(P(=S)(c2ccccc2)c2ccccc2)n2ccccc2[n+]1C/C=C/c1ccccc1.[Br-] , please.
50

What Population Mitochondria Different-Phenotype (%) value was documented for this molecule, C=CC(=O)Nc1cc(-n2c(=O)ccc3cnc4ccc(-c5ccc(NS(C)(=O)=O)cc5)cc4c32)ccc1C ?
10

Consider the molecule CC(C)[C@H](CO)Nc1nc(Nc2cccc(Cl)c2)c2ncn(C(C)C)c2n1 and give its measured Population Mitochondria Different-Phenotype (%).
21

Look at this molecule and give its reported Population Mitochondria Different-Phenotype (%). CC(/C=C1\SC(=S)N(CCCC(=O)Nc2ccc(C(=O)O)c(O)c2)C1=O)=C\c1ccccc1
7

###

Exercise: for every item that follows, state its recorded Population Healthy Nuclei (%).
# System: U2OS
# protocol: Multiplex assay against U2OS
# Format: toxicity, cell-based
# conditionSet: human, 24 h, 1 µM, compound concentration 1 uM, replicate 2

GET /values?readout=Population Healthy Nuclei (%)&item= C[C@@H](Oc1cc(-n2cnc3ccc(CN4CCN(C)CC4)cc32)sc1C(N)=O)c1ccccc1C(F)(F)F
68%

Would you kindly share the measured Population Healthy Nuclei (%) for CCOC(=O)CCNc1cc(N2CCc3ccccc3CC2)nc(-c2ccccn2)n1 ?
87%

If you can, please state the reported Population Healthy Nuclei (%) value of Cc1ccc(S(=O)(=O)NC2c3ccccc3Oc3ccccc32)cc1 .
88%

What value of Population Healthy Nuclei (%) has been reported for the following compound? Cc1ccc(NC(=O)Nc2cc(C(F)(F)F)ccc2F)cc1Nc1ccc2c(c1)NC(=O)/C2=C\c1ccc[nH]1
44%

Suppose we examine the compound CCCc1cc(C)[nH]c(=O)c1CNC(=O)c1cc(-c2ccc(N3CCN(C(C)C)CC3)nc2)cc2c1cnn2C(C)C ; what Population Healthy Nuclei (%) value has been reported?
51%

So what does the record say about Population Healthy Nuclei (%) for CC(Cc1ccc(O)c(O)c1)C(C)Cc1ccc(O)c(O)c1 (stereo unspecified) [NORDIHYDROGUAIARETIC ACID] ?
94%
